# SYSTEM_UNDER_TEST: G-protein coupled receptor 151 (Homo sapiens) (UniProt Q8TDV0)
# Sequence (Q8TDV0 whole entry, looked up): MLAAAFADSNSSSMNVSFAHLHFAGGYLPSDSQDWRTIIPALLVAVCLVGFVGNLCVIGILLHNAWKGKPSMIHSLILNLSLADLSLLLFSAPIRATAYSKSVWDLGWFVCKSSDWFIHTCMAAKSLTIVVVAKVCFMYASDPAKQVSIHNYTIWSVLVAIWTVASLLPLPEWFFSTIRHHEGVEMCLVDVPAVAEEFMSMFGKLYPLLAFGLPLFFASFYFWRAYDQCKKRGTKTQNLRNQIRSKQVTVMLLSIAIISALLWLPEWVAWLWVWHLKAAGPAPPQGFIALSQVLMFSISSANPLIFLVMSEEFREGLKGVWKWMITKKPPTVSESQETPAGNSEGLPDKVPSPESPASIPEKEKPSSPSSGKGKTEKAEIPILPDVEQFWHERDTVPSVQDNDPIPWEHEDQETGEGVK
# ASSAY_OVERVIEW: activators of human GPR151, primary screen, cell-based, PathHunter beta-arrestin, luminescence (AID 1508602)
# CONDITIONS_USED: PathHunter beta-arrestin GPR151 cells, at 11.2 µM
Out of some 650,000 compounds screened, about 6,800 (1%) were called active. Rule as the data show it: active = activation above about 4.9%; inactive = the rest. This is one part of a sample in which actives are shown more often than they occur.
Outcomes: active, inactive

compound="COc1cc(OC)c(OC)cc1/C=N/N=C1\\NC(=O)C(CC(=O)O)S1 (stereo unspecified)" class_assignment=inactive
compound=COc1ccc(-c2nc3cc(Cl)ccc3c(=O)o2)cc1OC class_assignment=inactive
compound=COC(=O)c1ccc(Nc2nc3c(s2)CCc2ccccc2-3)cc1 class_assignment=inactive
compound=Cc1[nH]c2ccccc2c1/C=N/NC(=O)/C(=C/c1ccccc1O)NC(=O)c1ccccc1 class_assignment=inactive
compound=COc1ccc(NC(=S)NC(=O)c2ccc([N+](=O)[O-])cc2)c(OC)c1 class_assignment=inactive
compound="COc1ccc(C2Nc3ccccc3C(=O)N2c2ccc(C)cc2)cc1COc1ccc(Cl)cc1 (stereo unspecified)" class_assignment=inactive
compound=COc1cccc(OC(=O)c2ccc(F)cc2[N+](=O)[O-])c1 class_assignment=inactive
compound=Cn1ccc(CC(=O)N2CCOc3ccc(CN4CCCC4)cc3C2)c1 class_assignment=inactive
compound="CCOc1cccc(CN2CCOc3ccc(CN4CCNC(=O)C4CC)cc3C2)c1 (stereo unspecified)" class_assignment=inactive
compound=Cc1ccc(C(=O)N/N=C\c2ccccc2O)cn1 class_assignment=inactive
compound=COc1ccc([N+](=O)[O-])cc1N1C(=O)c2ccc(-c3nc4ccccc4c(=O)o3)cc2C1=O class_assignment=inactive
compound=Cn1ncc2c(Nc3cccc(S(=O)(=O)Nc4cccc(C(F)(F)F)c4)c3)ncnc21 class_assignment=inactive
compound=Cc1[nH]nc(Nc2cccc(C(F)(F)F)c2)c1[N+](=O)[O-] class_assignment=inactive
compound=CC(=O)Nc1ccc2c(c1)CN(Cc1ccccc1)CO2 class_assignment=inactive
compound=O=C1N[C@@H](Cc2ccccc2)C(=O)N2CCN(C(=O)c3ccc(OC(F)(F)F)cc3)C[C@H]12 class_assignment=inactive
compound="COc1ccc(CC2(CCC(=O)NCCCn3ccnc3)CCC(=O)N2)c(F)c1 (stereo unspecified)" class_assignment=inactive
compound=COc1cc2nc(-c3ccc4c(c3)C(=O)N(CCC(C)C)C4=O)oc(=O)c2cc1OC class_assignment=active
compound=COC(=O)Cc1ccc(NC(=S)N2CCC(C(N)=O)CC2)cc1 class_assignment=inactive
compound="COc1ccc2c(c1)C(Cc1csc(C)n1)(c1ccc(F)cc1)C(=O)N2 (stereo unspecified)" class_assignment=inactive
compound=O=[N+]([O-])c1ccc2ncnc(Nc3cccc(C(F)(F)F)c3)c2c1 class_assignment=active
compound="CC(C)(C)CN1CCC(Oc2cccc(C(=O)NCC3CC(=O)N(C4CC4)C3)c2)CC1 (stereo unspecified)" class_assignment=inactive
